Consider the following compounds; for each one, report its AUC(0-inf).
# ASSAY_NOTES: Pharmacokinetic (PK) test
# Type: in vivo, male ICR mice
# DETAILS: male, ICR, mouse, plasma; Intravenous administration, 5 mg/kg; mice, n=3; read-out: AUCinf, Mean
Please answer using the number first and the unit second.

AUC(0-inf) measured on CCOCCn1c(Cl)c(/C=N/NC(=O)c2cc3cc(OC)ccc3o2)c2cc(OC)ccc21 [Example 15] = 1730 ng·h/mL

Measured AUC(0-inf) of CCOCCn1c(Cl)c(/C=N/NC(=O)c2cc3cc(C)ccc3o2)c2cc(OC)ccc21 [Example 8] : 2390 ng·h/mL

Lab note: measured AUC(0-inf) of CCOCCn1c(Cl)c(/C=N/NC(=O)c2cc3cc(C)ccc3o2)c2ccccc21 [Example 4] was 1500 ng·h/mL

====

# Tested on: HeLa cells
# ASSAY_NOTES: Anti-proliferative activity test in HeLa cell line (MTT)
# Assay type: cell-based
# DETAILS: Homo sapiens, 48 h, grown for 2 days, mean of 2
TEST_READOUT: pIC50
To interpret pIC50, take it as minus log10 of a concentration measured in moles per litre.

The compound listed as `CCOCCn1c(Cl)c(/C=N/NC(=O)c2cc3cc(C)ccc3o2)c2ccccc21` shows pIC50 equal to 6.74

Short answer for `CCOCCn1c(Cl)c(/C=N/NC(=O)c2cc3cc(OC)ccc3o2)c2cc(OC)ccc21` : pIC50 was 6.91

Query `CCOCCn1c(Cl)c(/C=N/NC(=O)c2cc3cc(C)ccc3o2)c2cc(OC)ccc21` yields pIC50 of 7.09

Reported pIC50 of `CCOC(=O)Cn1c(Cl)c(/C=N/NC(=O)c2cc3cc(C)ccc3o2)c2ccccc21` : 6.61

Consider `CCOCCn1c(Cl)c(/C=N/NC(=O)c2cc3cc(C)ccc3o2)c2cc(OC(F)(F)F)ccc21` . Its measured pIC50 is 6.21

pIC50 reported for this compound `COCCn1c(Cl)c(/C=N/NC(=O)c2cc3cc(C)ccc3o2)c2ccccc21` : 6.63

Value of measured pIC50 for the entry CCOC(=O)Cn1c(C)c(/C=N/NC(=O)c2cc3c(ccc4ccccc43)o2)c2ccccc21 [Comparative Example 1, reference compound] : 6.25

Measured pIC50, `Cc1ccc2oc(C(=O)N/N=C/c3c(Cl)n(C)c4ccccc34)cc2c1` : 6.05

====

# Tested on: HeLa cells
# ASSAY_NOTES: Anti-proliferative activity test in HeLa cell line (MTT)
# Type: cell-based
# DETAILS: Homo sapiens, 48 h, grown for 2 days, mean of 2
# Procedure: HeLa cells (American Type Culture Collection: ATCC, USA), a human cervical cancer cell line, were seeded in a 96-well plate at 3×10^3 cells/well, and the cells were then treated with compounds of Examples or Comparative Example according to the present invention and grown for 2 days. Then, MTT (3-(4,5-dimethylthiazol-2-yl)-2,5-diphenyltetrazolium bromide) reagent was added at 10 μL/well. After 2 hours, absorbance was measured at “OD 450” and statistical values were obtained using Prism™6 program. […]
Would you kindly list IC50 for each of these compounds?
# unit: nM | format: bare number

compound `Cc1ccc2oc(C(=O)N/N=C/c3c(Cl)[nH]c4ccccc34)cc2c1` , IC50 observed: 3880

Briefly, IC50 measured for `CCOCCn1c(Cl)c(/C=N/NC(=O)c2cc3cc(OC)ccc3o2)c2ccccc21` : 262

What the record says about `CCOCCn1c(Cl)c(/C=N/NC(=O)c2cc3cc(C)ccc3o2)c2ccc(OC)cc21` : IC50 is 232

The recorded IC50 for entry `CCOCCn1c(Cl)c(/C=N/NC(=O)c2cc3cc(C)ccc3o2)c2cc(Cl)ccc21` equals 243

====

# ASSAY_NOTES: Pharmacokinetic (PK) test
# Type: in vivo, male ICR mice
# DETAILS: male, ICR, mouse, plasma; Oral administration, 20 mg/kg; mice, n=3; read-out: AUCinf, Mean
TEST_READOUT: AUC(0-inf) (ng·h/mL)
The answer is to be given in ng·h/mL; state only the numeric part.

Record summary for `CCOCCn1c(Cl)c(/C=N/NC(=O)c2cc3cc(C)ccc3o2)c2cc(OC)ccc21` : reported AUC(0-inf) = 103

Form field AUC(0-inf), entry `CCOCCn1c(Cl)c(/C=N/NC(=O)c2cc3cc(C)ccc3o2)c2ccccc21` : 295

====

# ASSAY_NOTES: Stability test in plasma
# Type: in vitro ADME
# Set-up: dose or concentration left out as unconfirmed
# DETAILS: Mouse plasma; 37° C.
Classify: yes (1) when Residue % (180 minutes elapsed), Mean is strictly less than 60%; no (0) when Residue % (180 minutes elapsed), Mean is not.

# TODO verify Residue % (180 minutes elapsed), Mean < 60% strictly for this compound: CCN(CC)CCOC(=O)c1ccc(N)cc1 [Procaine, procaine, reference compound]
yes (1)

Given CCOC(=O)Cn1c(Cl)c(/C=N/NC(=O)c2cc3cc(C)ccc3o2)c2ccccc21 [Example 3] , is recorded Residue % (180 minutes elapsed), Mean strictly lower than 60%?
yes (1)

Please determine if CCOCCn1c(Cl)c(/C=N/NC(=O)c2cc3cc(OC)ccc3o2)c2cc(OC)ccc21 [Example 15] is below 60% in terms of Residue % (180 minutes elapsed), Mean.
yes (1)

Is 60% strictly greater than the compound's reported Residue % (180 minutes elapsed), Mean? compound: Cc1ccc2oc(C(=O)N/N=C/c3c(Cl)n(C)c4ccccc34)cc2c1 [Example 2]
yes (1)

Confirm or reject: Residue % (180 minutes elapsed), Mean of CCOCCn1c(Cl)c(/C=N/NC(=O)c2cc3cc(C)ccc3o2)c2cc(OC)ccc21 [Example 8] lies strictly below 60%
no (0)

====

Provide the recorded IC50 for the entries that follow.
# Test system: MCF7/ADR
# ASSAY_NOTES: Anti-proliferative activity test in cancer cells exhibiting multidrug resistance (MTT)
# Type: cell-based
# DETAILS: Homo sapiens, NCI/ADR-RES, 96 h; MCF7/ADR (multidrug-resistant); 4 days; MTT

IC50 for `CC[C@]1(O)C[C@@H]2CN(CCc3c([nH]c4ccccc34)[C@@](C(=O)OC)(c3cc4c(cc3OC)N(C)[C@H]3[C@@](O)(C(=O)OC)[C@H](OC(C)=O)[C@]5(CC)C=CCN6CC[C@]43[C@@H]65)C2)C1` is 95.9 nM

// `COc1cccc2c1C(=O)c1c(O)c3c(c(O)c1C2=O)C[C@@](O)(C(=O)CO)C[C@@H]3O[C@H]1C[C@H](N)[C@H](O)[C@H](C)O1` : IC50 value = 2610 nM

response.value for `CCOCCn1c(Cl)c(/C=N/NC(=O)c2cc3cc(C)ccc3o2)c2ccccc21` (field: IC50) = 332 nM

Per the records, this compound ( `CC(=O)O[C@H]1C(=O)[C@@]2(C)[C@H]([C@H](OC(=O)c3ccccc3)[C@]3(O)C[C@H](OC(=O)[C@H](O)[C@@H](NC(=O)c4ccccc4)c4ccccc4)C(C)=C1C3(C)C)[C@]1(OC(C)=O)CO[C@@H]1C[C@@H]2O` ) has IC50 equal to 1030 nM

====

# ASSAY_NOTES: Stability in buffer (line of the metabolic stability test)
# Assay type: in vitro ADME
Each entry gets not fulfilled if its Residue (%) after culturing for 30 min stays under 90%, and fulfilled if its Residue (%) after culturing for 30 min is 90% or above.

Would you say `Cc1ccc2oc(C(=O)N/N=C/c3c(Cl)n(C)c4ccccc34)cc2c1` shows Residue (%) after culturing for 30 min at minimum 90%?
not fulfilled

Identify whether the reported Residue (%) after culturing for 30 min of the following molecule is 90% or greater: `CCOCCn1c(Cl)c(/C=N/NC(=O)c2cc3cc(C)ccc3o2)c2ccccc21`
fulfilled

Please check the record `CCOCCn1c(Cl)c(/C=N/NC(=O)c2cc3cc(C)ccc3o2)c2cc(OC)ccc21` and state if its Residue (%) after culturing for 30 min is at or above 90%.
fulfilled

====

# Test system: HeLa cells
# ASSAY_NOTES: Anti-proliferative activity test in HeLa cell line (MTT)
# Type: cell-based
# DETAILS: Homo sapiens, 48 h, grown for 2 days, mean of 2
Hi there, I'd appreciate the recorded pIC50 for every entry that follows.
Bear in mind: pIC50 is minus log10 of a mol/L concentration; give just that figure.

Value (pIC50, HeLa cells) for record `CCOC(=O)Cn1c(C)c(/C=N/NC(=O)c2cc3c(OC)cc(OC)cc3o2)c2ccccc21` = 6.30

Reading of pIC50 for `CCOCCn1c(Cl)c(/C=N/NC(=O)c2cc3cc(NC(C)=O)ccc3o2)c2ccccc21` with HeLa cells: 5.34

Lab note: molecule `CCOCCn1c(C(F)(F)F)c(/C=N/NC(=O)c2cc3cc(C)ccc3o2)c2ccccc21` tested on HeLa cells; recorded pIC50 was 5.91

Value (pIC50, HeLa cells) for record `CCOCCn1c(Cl)c(/C=N/NC(=O)c2cc3c(OC)cc(OC)cc3o2)c2ccccc21` = 6.25

// returns pIC50 for `CCOCCn1c(Cl)c(/C=N/NC(=O)c2cc3cc(C)ccc3o2)c2cc(F)ccc21` with HeLa cells; value = 6.66

Form field, pIC50 with HeLa cells, item `CCOCCn1c(Cl)c(/C=N/NC(=O)c2cc3cc(Cl)ccc3o2)c2ccccc21` : 6.34

Short answer on HeLa cells for `CCOCCn1c(Cl)c(/C=N/NC(=O)c2cc3cc(C)ccc3o2)c2cc(C)ccc21` , pIC50: 6.47

Item: `CCOCCn1c(Br)c(/C=N/NC(=O)c2cc3cc(C)ccc3o2)c2ccccc21` | System: HeLa cells | pIC50: 6.58
